# Test system: dopamine D2 receptors (Homo sapiens (Human))
# Sequence (P14416 whole entry): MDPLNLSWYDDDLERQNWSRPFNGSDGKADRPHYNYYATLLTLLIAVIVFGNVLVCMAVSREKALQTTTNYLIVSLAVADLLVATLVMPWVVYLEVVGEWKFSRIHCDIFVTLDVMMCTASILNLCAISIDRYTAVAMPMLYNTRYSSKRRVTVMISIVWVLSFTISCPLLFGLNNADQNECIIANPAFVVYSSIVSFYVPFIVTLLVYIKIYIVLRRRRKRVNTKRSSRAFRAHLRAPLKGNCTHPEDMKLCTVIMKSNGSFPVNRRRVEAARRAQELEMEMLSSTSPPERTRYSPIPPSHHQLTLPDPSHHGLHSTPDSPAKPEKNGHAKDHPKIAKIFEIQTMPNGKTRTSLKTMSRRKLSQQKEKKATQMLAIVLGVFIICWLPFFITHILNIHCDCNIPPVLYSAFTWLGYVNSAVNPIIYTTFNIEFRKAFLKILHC
# Assay info: Dopamine D2 receptor Gαi1 BRET (G protein trimer dissociation);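 note: transfected cells co-expressing D2 receptor, Gαi1-Rluc, Gβ3 and Gγ9-GFP, BRET with coelenterazine 400a at 5 µM read as G protein trimer dissociation, graded drug concentrations in duplicate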
# Assay type: cell-based
# Test conditions: D2 receptor, G protein pathway; read-out: Gαi1 BRET EC50
Field: pEC50. Provide a value for each of the molecules that follow.
Scale explanation: pEC50 corresponds to minus log10 of a concentration expressed in moles per litre.

Problem: Test system dopamine D2 receptors (Homo sapiens (Human)); read-out pEC50; what value for Fc1ccc(CCN2CCN3c4cccc5scc(c45)CC3C2)cc1 (centres unmarked) ?
Result: 6.71

Problem: // lookup pEC50 | system=dopamine D2 receptors (Homo sapiens (Human)) | key= CN(C)C(=O)N[C@H]1CC[C@H](CCN2CCN3c4cccc5scc(c45)CC3C2)CC1 (some centres unmarked) [Compound I-27]
Result: 8.41

Problem: Lab note: need pEC50 for c1ccc(OCCN2CCN3c4cccc5scc(c45)CC3C2)cc1 (centres unmarked) on dopamine D2 receptors (Homo sapiens (Human)), anyone have it?
Result: 6.48

Problem: Give the reported pEC50 for c1cc2c3c(csc3c1)CC1CN(CCCOc3ccc4c(c3)OCO4)CCN21 (centres unmarked) (system: dopamine D2 receptors (Homo sapiens (Human))).
Result: 7.35

Problem: Recorded pEC50 for O=C1c2ccccc2CCCN1CCCCN1CCN2c3cccc4scc(c34)CC2C1 (centres unmarked) with dopamine D2 receptors (Homo sapiens (Human)), please?
Result: 7.56

Problem: Provide value of pEC50 for this record tested with dopamine D2 receptors (Homo sapiens (Human)): O=C1CCc2ccc(OCCCCN3CCN4c5cccc6scc(c56)CC4C3)cc2N1 (centres unmarked)
Result: 6.97

Problem: Kindly state the measured pEC50 obtained for O=C1NCCN1c1cccc(CN2CCN3c4cccc5scc(c45)CC3C2)c1 (centres unmarked) with dopamine D2 receptors (Homo sapiens (Human)).
Result: 6.55

Problem: Form field - read-out: pEC50; system: dopamine D2 receptors (Homo sapiens (Human)); submitted item: O=C(N[C@H]1CC[C@H](CCN2CCN3c4cccc5scc(c45)CC3C2)CC1)N1CCCC1 (some centres unmarked)
Result: 7.74

Problem: Please state recorded pEC50 (tested on dopamine D2 receptors (Homo sapiens (Human))) of CN(C)C(=O)N[C@H]1CC[C@H](CCN2CCN3c4cccc5scc(c45)C[C@@H]3C2)CC1 [(+)-I-27]
Result: 8.04

Problem: Could you share what pEC50 was measured for c1cc2c3c(csc3c1)CC1CN(CC3CC3)CCN21 (centres unmarked) , tested on dopamine D2 receptors (Homo sapiens (Human))?
Result: 7.44

Problem: Please provide the recorded pEC50 for Fc1ccc(-c2cncc(CN3CCN4c5cccc6scc(c56)CC4C3)c2)cc1 (centres unmarked) , tested on dopamine D2 receptors (Homo sapiens (Human)).
Result: 6.28

Problem: Form field: pEC50 recorded for O=C(CN1CCN2c3cccc4scc(c34)CC2C1)c1ccc(F)cc1 (centres unmarked) with dopamine D2 receptors (Homo sapiens (Human)) (enter value)
Result: 6.10

Problem: Recorded pEC50 for CN(C)C(=O)N[C@H]1CC[C@H](CCN2CCN3c4cccc5scc(c45)CC3C2)CC1 (single isomer, unassigned; (-)) [(−)-I-27] with dopamine D2 receptors (Homo sapiens (Human)), please?
Result: 8.42

Problem: Form entry - test system: dopamine D2 receptors (Homo sapiens (Human)); read-out: pEC50; molecule: O=C(N[C@H]1CC[C@H](CCN2CCN3c4cccc5scc(c45)CC3C2)CC1)N1CCCCC1 (some centres unmarked)
Result: 7.49

Problem: Identify the measured pEC50 of O=c1ccc2ccc(OCCCCN3CCN4c5cccc6scc(c56)CC4C3)cc2[nH]1 (centres unmarked) for dopamine D2 receptors (Homo sapiens (Human)).
Result: 8.08

Problem: Report pEC50 for COc1cc2c(cc1OC)C(=O)N(CCCCN1CCN3c4cccc5scc(c45)CC3C1)C2 (centres unmarked) tested on dopamine D2 receptors (Homo sapiens (Human)).
Result: 6.55

Problem: API: value(readout=pEC50, system=dopamine D2 receptors (Homo sapiens (Human))) for record O=c1ccc2ccc(OCCCN3CCN4c5cccc6scc(c56)CC4C3)cc2[nH]1 (centres unmarked)
Result: 7.73

Source of measurements: patent US20240383913A1
